Experiment: folding stability dG unfold (combined trypsin and chymotrypsin); higher = more stable
We'd kindly ask you to apply these folding stability dG unfold classes: low end = under 1 kcal/mol, middle = from 1 kcal/mol up to 3 kcal/mol, high end = 3 kcal/mol and over

SAGGSAGGSAGGPYEKAVEAAKALGSEDKPITIKLPNGTTVTLKPSELPSLPYEDPIVLLSAGGSAGGSAGG [r7_863_JUSTAS]; low end
SAGGSAGGSAGGSMKIYVTSPEEAKKEKEKILEELKKTNIPPKVKVEVKVIPKSEIPLESAGGSAGGSAGGS [r4_472_JUSTAS]; low end
SAGGSAGGSGMSPEALAIKEQVKAEHPDLRVEVKEKILPNGTLEITVTFDDGTTETYTIPIGESAGGSAGGS [r20_210_JUSTAS]; high end
SAGRLTTELGDVKAEVFRIPNLNLSLVVYEYPTSVRTLLATEHGDTVTIHPLTETPLPLPPLSDLKSLSAGG [r19_328_TrMRF]; low end
SAGGSAKLIVADVSPLPDGGFAVNVTFVGENGEPVAVKPFYAGSPEELLAALKKFAEENGYEVVVASAGGSA [r15_242_TrMRF]; high end
SAGGSASMARVEAIAEEIAPRLKAEGRPIARIEVTATRLPDGTVVVPITLTTPDGTPVYTFEVVVESAGGSA [r15_232_JUSTAS]; middle
SAGGSANNPKPRIIEIPIQFDWPPGDPQQMRNLAETIADEFSDPGYRVEIDEFTPDYFMFNIKIEWSAGGSA [r15_563_TrROS]; middle
SAGGSAGGSGSMSIPVGSPEALREYLRERLPPEADLSEEELEALVEELLAKASIDSDGRLHLASAGGSAGGS [r12_983_JUSTAS]; middle
SAGMTLIIRVKVYNKDGELVEEREIEVPNMSVEEIAEALKKLPNVEKVKIEVFNADGEKKEIEIEVKPSAGG [r19_269_TrROS_Hall]; high end
SAGGSAGGSAGGEELEVSVSVSVTEVDGKLYLTATVTIDGKEYTFTAELTVTLPPPPPEESAGGSAGGSAGG [r7_413_TrROS_Hall]; high end
SAGGSAGGSMHEDEQLPYEAAEKYTILKLKEENEKLNLPPIPIKKIEIEKDPETGLVRVKVYGSAGGSAGGS [r12_583_TrMRF]; low end
SAGGSAGGSAGGSSKVIEVNGYKITVTDNSVEIYNKKTGKKITVNADNPEVQELLKKLLSAGGSAGGSAGGS [r4_353_TrROS_Hall]; high end
SAGGSAGGSMSTVSTSTTYFPDKKVTTTTTVTPTPDGTTATTPSVTVTPLPPPNPPPAPFNRLSAGGSAGGS [r20_30_JUSTAS]; low end
